# MEASUREMENT DESCRIPTION: IANBD-channel fluorescence artefacts in buffer – biochemical, artefact control for cardiac RTF calcium sensitizer project, confirmation (AID 504382)
# CONDITION SUMMARY: IANBD fluorescence interference counterscreen, EC20 Ca2+, at 7.2 µM, active compounds read high, scaled: EC20 calcium 0, EC100 calcium 100
About 460 (18%) of roughly 2,500 compounds were called active. The list is a sample of the results.
Known fluorescence artifact activation of a selection of compounds
EXPERIMENTAL ENDPOINT: fluorescence artifact activation (%)

# COMPOUND, MEASURED
records = [
    ("N#C/C(=C\\c1ccc(-c2ccccc2C(=O)O)o1)c1nc2ccccc2[nH]1", 1.15),
    ("COc1cc(/C=C(\\C#N)c2nc3ccccc3[nH]2)ccc1O", 0.06),
    ("Cn1nnc(NC(=S)NC(=O)/C=C/c2ccco2)n1", 0.78),
    ("O=c1oc2c(CN3CCCCC3)c(O)ccc2cc1-c1nc2ccccc2[nH]1", 60.5),
    ("S=C(Nc1cc(Cl)ccc1Oc1ccccc1)N1CCN(c2ccccn2)CC1", 23.1),
    ("CC(C(=O)NNS(=O)(=O)c1cccc(C(F)(F)F)c1)n1nnc(N2CCOCC2)n1 (stereo not drawn)", 0.4),
    ("C=CCN(C(=O)CNS(=O)(=O)c1ccccc1)C(C(=O)NCCOC)c1ccncc1 (stereo not drawn)", 0.23),
    ("O=C(Nc1cc2c3c(c1)CC(=O)N3CCC2)C1CC1", 0.03),
    ("O=c1oc2c(O)cccc2cc1-c1nc2ccccc2[nH]1", 0.04),
    ("N#C/C(=C\\c1ccc(N2CCOCC2)o1)c1nc2ccccc2[nH]1", 14.2),
    ("O=c1c2ccccc2nc(SCc2nc(-c3ccccc3)no2)n1-c1ccc(F)cc1", 0.14),
    ("COc1ccc(/C=C2\\Oc3cc(OCC(=O)N4CCC(C(=O)O)CC4)ccc3C2=O)c(OC)c1", 84),
    ("CCOC(=O)c1c(C#N)c(SCC(=O)Nc2ccc(OC)cc2)nc2c1CN(CC)CC2", 25.1),
    ("COc1ccc(/C=C2\\Oc3cc(OCC(=O)N4CCC[C@H]4C(=O)O)ccc3C2=O)c(OC)c1", 5.17),
    ("CCOc1cc(N(CC)CC)ccc1/C=C(/C#N)c1nc2ccccc2[nH]1", 0.26),
    ("O=C(C1=NN[C@@H]2C(=O)N(c3ccccc3C(F)(F)F)C(=O)[C@H]12)c1ccc2ccccc2n1", 22.3),
    ("COc1ccccc1C(=O)NNC(=O)CCCN1C(=O)/C(=C/c2cccs2)SC1=S", -0.02),
    ("Cc1ccc2nc(/C(C#N)=C/c3ccc(-c4ccccc4C(=O)O)o3)[nH]c2c1", 0.32),
    ("CCOC(=O)C(=O)Nc1nnc(COc2ccccc2)s1", -0.01),
    ("N#C/C(=C/c1ccc(N2CCOCC2)o1)c1nc2ccccc2[nH]1", 0.08),
    ("O=C(NN1C(=O)/C(=C/c2ccc(O)cc2)SC1=S)c1ccccc1O", 0.14),
    ("O=C(COc1ccccc1Cl)N1CCN(c2ccccn2)CC1", 0.24),
    ("CCOC(=O)Cn1c(=NC(=O)c2cc(-c3cccs3)nc3ccccc23)sc2cc(S(N)(=O)=O)ccc21", -0.11),
    ("COc1cc(Cl)c(S(=O)(=O)NCc2ccccn2)cc1Cl", -0.05),
    ("COc1ccc(CNc2oc(COc3ccccc3)nc2C#N)cc1", 21.9),
    ("CCc1ccc(C(=O)NNc2cc(Cl)ccc2Cl)cc1", 0.03),
    ("Cc1cc(N2C(=O)C(O)=C(C(=O)c3cccs3)C2c2ccc(F)cc2)no1 (stereo not drawn)", 7.29),
    ("COC(=O)c1c(-c2ccc(OC)c(OC)c2)csc1N", 0),
    ("COCCNC(=O)[C@H]1C[C@@H]1[C@H](NP(=O)(c1ccccc1)c1ccccc1)c1ccccc1", 1400),
    ("O[C@@H]1CN(C2CCCCC2)CC[C@H]1N1CCN(CCc2ccccc2)CC1", 7.79),
    ("CC(=O)c1ccc(NC(=O)CN2C(=O)/C(=C/C=C/c3ccccc3)SC2=S)cc1", 0.03),
    ("CCC(CC)c1nc(C#N)c(NC(C)c2ccccc2)o1 (stereo not drawn)", 0),
    ("COc1cc(/C=C(\\C#N)c2nc3ccccc3[nH]2)cc(OC)c1O", 6.16),
    ("N#C/C(=C/c1ccc(N2CCOCC2)o1)C(=O)N1CCOCC1", 0.41),
    ("COc1cccc(/C=C(/C#N)c2nc3ccccc3[nH]2)c1OC(C)C(=O)O (stereo not drawn)", 0.54),
    ("COc1ccc(/C=C2\\Oc3cc(OCC(=O)N4CCC[C@H]4CO)ccc3C2=O)c(OC)c1", 0.23),
    ("CC(C)(C)c1ccc(-c2n[nH]c(=S)n2CC2CCCO2)cc1 (stereo not drawn)", 34.7),
    ("S=C(NCCCN1CCOCC1)Nc1ccc(-c2nc3ccccc3[nH]2)cc1", 0.17),
    ("O=C1C=C(NCc2ccco2)CC(c2ccc(Cl)cc2)C1 (stereo not drawn)", 0.31),
    ("Cc1noc(NS(=O)(=O)c2ccc(NC(=O)CSc3nc4c(cc3C#N)CCC4)cc2)c1C", 0.31),
    ("CCN(CC)c1ccc(/C=C(/C#N)c2nc3ccccc3[nH]2)c(OC(C)C)c1", 41.8),
    ("CCCOc1cc(N(CC)CC)ccc1/C=C(/C#N)c1nc2ccc(C)cc2[nH]1", 12.4),
    ("C=CCOc1ccn(C)c(=O)n1", 2.39),
]
